# Tested on: 786-0
# assay.remarks: NCI tumour cell line growth inhibition, 48 h
The source made the active and inactive calls. Cut-off read from the data, not from the text of the source: active = GI50 up to about 1.1 µM and inactive = higher.
Please state which outcome applies, choosing from active, inactive

Cc1cc(N(CCC#N)CCC#N)ccc1C(=N/NC(=O)c1cc(Cl)ccc1O)/N=N/c1cccc(Cl)c1; inactive
OC1OC(c2ccc[nH]2)C(F)(F)C(F)(F)C1(F)F (configuration not stated); inactive
[O-]c1c[n+](-c2ccccc2)no1; inactive

Each compound tested received a call. Report the one for "N#Cc1nc(C2SCCCS2)oc1N" .
inactive

Each compound tested received a call. Report the one for "C/C1=C\[C@@H](C)C[C@@H](C)OC(=O)[C@@H](C)NC(=O)[C@H](Cc2ccc(O)c(Br)c2)N(C)C(=O)CNC(=O)[C@H](C)C1" .
active

Each compound tested received a call. Report the one for "COC(=O)[C@@H](NC1(c2ccccc2)c2ccccc2-c2ccccc21)[C@@H](C(=O)OC)N(NC(=O)OCc1ccccc1)C(=O)OCc1ccccc1.COC(=O)[C@@H](NC1(c2ccccc2)c2ccccc2-c2ccccc21)[C@H](C(=O)OC)N(NC(=O)OCc1ccccc1)C(=O)OCc1ccccc1" .
inactive

Each compound tested received a call. Report the one for CC[C@H](C)C(=O)O[C@H]1C[C@@H](C)C=C2C=C[C@H](C)[C@H](CC[C@@H]3C[C@@H](O)CC(=O)O3)[C@H]21 [LOVASTATIN] .
inactive

---

Quick list: GI50 per entry.
# Tested on: UO-31
# assay.remarks: NCI tumour cell line growth inhibition, 48 h
Active and inactive are the calls of the source. No stated cut-off is given here; in the data, active = GI50 up to about 1.1 µM and inactive = higher.

O=C1Nc2ccccc2/C1=C/c1ccccc1; 12.6 µM (inactive)

Look at this molecule and give its reported GI50. CN(C)CC1CCCCCCCCCCCCC(CN(C)C)C1=O (stereo unspecified)
13.7 µM (inactive)

Look at this molecule and give its reported GI50. "O=C1CNc2cc(N3CCN(c4ccccc4)CC3)ccc2N1"
> 100 µM (inactive)

Look at this molecule and give its reported GI50. CCOC(=O)CCC1(C(=O)OCC)CCCC1=O (stereo unspecified)
> 100 µM (inactive)

Look at this molecule and give its reported GI50. CC(C)=CCCC1(Sc2ccccc2)C(=O)OCC1C=C(C)C (stereo unspecified)
22.6 µM (inactive)

Look at this molecule and give its reported GI50. "Cn1c(=O)c2nc(/N=N/Nc3nncs3)[nH]c2n(C)c1=O"
> 100 µM (inactive)

Look at this molecule and give its reported GI50. "COCn1cc(C2=C(C)C(=O)C(C)=C(C)C2=O)cn1"
57.5 µM (inactive)

Look at this molecule and give its reported GI50. Cc1ccc(S(=O)(=O)C2=Cc3ccc(C(F)(F)F)cc3C2(O)c2cccc(C(F)(F)F)c2)cc1 (stereo unspecified)
2.25 µM (inactive)

Look at this molecule and give its reported GI50. "c1ccc(-c2nnc3nn4c(-c5ccccc5)cnnc4c3c2-c2ccccc2)cc1"
23.2 µM (inactive)

Look at this molecule and give its reported GI50. CC(=O)OCC(Br)C1(C)CCC(C(C)(C)Br)O1 (stereo unspecified)
39.6 µM (inactive)

Look at this molecule and give its reported GI50. COC(=O)C(CC12CC3CC(CC(C3)C1)C2)NC(=O)C(N)CC(=O)O (stereo unspecified)
> 100 µM (inactive)

---

# Tested on: SNB-19
# assay.remarks: NCI tumour cell line growth inhibition, 48 h
Active and inactive are the calls of the source. Cut-off read from the data, not from the text of the source: active = GI50 up to about 1.1 µM and inactive = higher.
Quick list: GI50 per entry.

Some solved entries appear below for comparison.
O=C(NCCSSCCNC(=O)/C(Cc1ccc(O)c(Br)c1)=N/O)/C(Cc1ccc(O)c(Br)c1)=N/O [PSAMMAPLIN A]; 2.08 µM (inactive)
O=C(N/C(=C\c1cccc([N+](=O)[O-])c1)c1nc2cc([N+](=O)[O-])ccc2[nH]1)c1ccccc1; 45.4 µM (inactive)
CN(C)c1cccc2c(S(=O)(=O)NCCCNCCN)cccc12; > 100 µM (inactive)
CC1=C(C)C(=O)OC(C(C)(O)C2(O)CC3OC34C3CC(O)C56OC5C=CC(=O)C6(C)C3CCC42C)C1 (stereo not given); 4.12 µM (inactive)

Tell me reported GI50 for CCC12CCCN(Cc3ccccc3)C1c1c(n(C)c3ccccc13)C(C(=O)OC)C2 (stereo not given) , tested with SNB-19.
72.9 µM (inactive)
